Listed compounds paired with reported Plant response rating, Soybean
- Tested on: soybean (Glycine max)
- PROTOCOL DETAILS: Test D pre-/postemergence plant response
- Format: in vivo
- EXPERIMENTAL CONDITIONS: Postemergence, 62 g ai/ha; scale 0 to 100, 0 no effect, 100 complete control
- Source text: […]
No unit in the answer, please; the number alone is enough.

# annotated cases, reported Plant response rating, Soybean shown
| COMPOUND | Plant response rating, Soybean |
| --- | --- |
| Fc1ccc(Oc2ncc(Cl)cn2)c(-c2cc(C(F)F)on2)c1F [Compound 113] | 65 |
| FC(F)(F)c1cc(-c2c(I)cccc2Oc2ncc(Cl)cn2)no1 [Compound 156] | 30 |
| FC(F)(F)c1cc(-c2c(Br)cccc2Oc2ncc(Cl)cn2)no1 [Compound 170] | 10 |

# ---- query compound ----
Query: Would you mind telling me what Plant response rating, Soybean value was observed for FC(F)(Cl)c1cc(-c2ccccc2Oc2ncc(Cl)cn2)no1 [Compound 143] ?
Reply: 60

---

- System: velvetleaf (Abutilon theophrasti)
- PROTOCOL DETAILS: Test D pre-/postemergence plant response
- Type: in vivo
- EXPERIMENTAL CONDITIONS: Preemergence; 31 g ai/ha; scale 0 to 100 (0 no effect, 100 complete control)
- Description: […]
Listed compounds paired with reported Plant response rating, Velvetleaf
No unit in the answer, please; the number alone is enough.

Query: Find the measured Plant response rating, Velvetleaf: item `Cc1cc(-c2ccccc2Oc2ncc(Cl)cn2)no1` , target or system velvetleaf (Abutilon theophrasti).
Reply: 100

Query: Find the measured Plant response rating, Velvetleaf: item `FCc1cc(-c2c(F)cccc2Oc2ncc(Cl)cn2)no1` , target or system velvetleaf (Abutilon theophrasti).
Reply: 100

Query: Find the measured Plant response rating, Velvetleaf: item `Fc1ccc(Oc2ncc(Cl)cn2)c(-c2cc(C(F)F)on2)c1F` , target or system velvetleaf (Abutilon theophrasti).
Reply: 85

Query: Find the measured Plant response rating, Velvetleaf: item `Cc1cc(-c2ccccc2Oc2ncc(Cl)cn2)on1` , target or system velvetleaf (Abutilon theophrasti).
Reply: 100

Query: Find the measured Plant response rating, Velvetleaf: item `Cc1cc(-c2c(F)cccc2Oc2ncc(Cl)cn2)on1` , target or system velvetleaf (Abutilon theophrasti).
Reply: 90

Query: Find the measured Plant response rating, Velvetleaf: item `COc1cccc(Oc2ncc(Cl)cn2)c1-c1cc(C(F)(F)F)no1` , target or system velvetleaf (Abutilon theophrasti).
Reply: 50

Query: Find the measured Plant response rating, Velvetleaf: item `FC(F)Oc1cccc(Oc2ncc(Cl)cn2)c1-c1cc(C(F)F)on1` , target or system velvetleaf (Abutilon theophrasti).
Reply: 65

Query: Find the measured Plant response rating, Velvetleaf: item `FC(F)(F)c1cc(-c2ccccc2Oc2ncc(Cl)cn2)ncn1` , target or system velvetleaf (Abutilon theophrasti).
Reply: 70

---

- Tested on: velvetleaf (Abutilon theophrasti)
- PROTOCOL DETAILS: Test B pre-/postemergence plant response
- Assay type: in vivo
- EXPERIMENTAL CONDITIONS: Preemergence, 500 g ai/ha; 0 to 100 scale where 0 is no effect and 100 is complete control
MEASUREMENT TYPE: Plant response rating, Velvetleaf
No unit in the answer, please; the number alone is enough.

# annotated cases, reported Plant response rating, Velvetleaf shown
| MOL | VALUE MEASURED |
| --- | --- |
| FC(F)(F)c1ccc(-c2ccccc2Oc2ncc(Cl)cn2)cc1 | 10 |
| Clc1cnc(Oc2ccccc2-c2nccs2)nc1 | 10 |
| Fc1cnc(Oc2ccccc2-c2cc(C(F)(F)F)on2)nc1 | 40 |
| FC(F)(F)c1ccnc(-c2ccccc2Oc2ncc(Br)cn2)c1 | 80 |
| N#Cc1cccc(Oc2ncc(F)cn2)c1-c1ccc(Cl)cn1 | 30 |
| N#Cc1cccc(-n2cc(Br)cn2)c1Oc1ncc(Cl)cn1 | 0 |

Query: Find the measured Plant response rating, Velvetleaf: item `FC(F)(F)c1cc(-c2ccccc2Oc2ncc(Br)cn2)on1` , target or system velvetleaf (Abutilon theophrasti).
Reply: 90

Query: Find the measured Plant response rating, Velvetleaf: item `O=[N+]([O-])c1cc(Cl)cnc1-c1ccccc1Oc1ncc(Cl)cn1` , target or system velvetleaf (Abutilon theophrasti).
Reply: 0

Query: Find the measured Plant response rating, Velvetleaf: item `Clc1cnc(Oc2ccccc2-c2cc(Cl)cc(Cl)c2)nc1` , target or system velvetleaf (Abutilon theophrasti).
Reply: 0

All values here come from patent US10131652B2.
